Reference for the values: paper PMC11300601

assay-info: Brain distribution in rats (plasma, brain, CSF by LC-MS/MS)
Format: in vivo, Male Sprague Dawley (SD) rats
condition-label: male, Sprague-Dawley, rat, in vivo, po, 10 mg/kg, Brain/plasma ratio (%)
Experimental: All […] (PK) studies in rats were conducted according to protocols approved by the Animal Care and Use Committee at InnoCare pharmacology company in China. […] For the collection of plasma, brain tissue and cerebrospinal fluid (CSF), animals were euthanized with CO2 at 0.5 and 2 h post dosing and blood samples were in EDTA-treated microtubes. […] The agents in rat plasma, brain homogenate or CSF samples were extracted and quantified by LC-MS/MS.
# Kp at 2 h per record follows

| structure-string | Kp at 2 h |
| --- | --- |
| C[C@@H]1CCc2ncc(F)cc2[C@H]2CCCN2c2ccn3ncc(c3n2)C(=O)N1 | 0.0617 |
| C[C@H]1CNC(=O)c2cnn3ccc(nc23)N[C@H](C)c2cc(F)ccc2O1 | 0.102 |

###

Tested on: Ba/F3 LMNA-NTRK1-G667A
assay-info: Ba/F3 cell viability (anti-proliferative activity)
Type: cell-based, mouse
condition-label: Mus musculus, BaF3
# IC50 per record follows
recorded-endpoint: IC50 (nM)

| structure-string | study-target | recorded-endpoint | result-number |
| --- | --- | --- | --- |
| O=C(Nc1cnn2ccc(N3CCC[C@@H]3c3cc(F)ccc3F)nc12)N1CC[C@H](O)C1 | Ba/F3 LMNA-NTRK1-G667A | IC50 | 118 |
| C[C@@H]1CCc2ncc(F)cc2[C@H]2CCCN2c2ccn3ncc(c3n2)C(=O)N1 | Ba/F3 LMNA-NTRK1-G667A | IC50 | 21.1 |

###

assay-info: Brain distribution in rats (plasma, brain, CSF by LC-MS/MS)
Format: in vivo, Male Sprague Dawley (SD) rats
condition-label: male, Sprague-Dawley, rat, in vivo, po, 10 mg/kg, CSF/plasma ratio (%)
recorded-endpoint: Kp at 0.5 h

| structure-string | result |
| --- | --- |
| C[C@@H]1CCc2ncc(F)cc2[C@H]2CCCN2c2ccn3ncc(c3n2)C(=O)N1 | 0.00476 |
| C[C@H]1CNC(=O)c2cnn3ccc(nc23)N[C@H](C)c2cc(F)ccc2O1 | 0.00478 |

###

assay-info: Brain distribution in rats (plasma, brain, CSF by LC-MS/MS)
Type: in vivo, Male Sprague Dawley (SD) rats
condition-label: male, Sprague-Dawley, rat, in vivo, po, 10 mg/kg, CSF concentration (ng/mL ± SD)
# concentration at 2 h per record follows
recorded-endpoint: concentration at 2 h (ng/mL)

| structure-string | recorded-endpoint | unit-text | result-number |
| --- | --- | --- | --- |
| C[C@H]1CNC(=O)c2cnn3ccc(nc23)N[C@H](C)c2cc(F)ccc2O1 | concentration at 2 h | ng/mL | 5.61 |
| C[C@@H]1CCc2ncc(F)cc2[C@H]2CCCN2c2ccn3ncc(c3n2)C(=O)N1 | concentration at 2 h | ng/mL | 9.64 |

###

# Kp at 0.5 h per record follows
assay-info: Brain distribution in rats (plasma, brain, CSF by LC-MS/MS)
Assay type: in vivo, Male Sprague Dawley (SD) rats
condition-label: male, Sprague-Dawley, rat, in vivo, po, 10 mg/kg, Brain/plasma ratio (%)

| compound | Kp at 0.5 h |
| --- | --- |
| C[C@@H]1CCc2ncc(F)cc2[C@H]2CCCN2c2ccn3ncc(c3n2)C(=O)N1 [Selitrectinib, selitrectinib] | 0.0403 |
| C[C@H]1CNC(=O)c2cnn3ccc(nc23)N[C@H](C)c2cc(F)ccc2O1 [Repotrectinib, repotrectinib] | 0.0914 |
